Provide the reported koff of each item.
- measured-target: T1, human transferrin receptor (recombinant, for surface plasmon resonance) (human, UniProt P02786 89-760)
- T1 construct: also called huTfR; human transferrin receptor-biotinylated
- T1 sequence (P02786 89-760 limits assumed): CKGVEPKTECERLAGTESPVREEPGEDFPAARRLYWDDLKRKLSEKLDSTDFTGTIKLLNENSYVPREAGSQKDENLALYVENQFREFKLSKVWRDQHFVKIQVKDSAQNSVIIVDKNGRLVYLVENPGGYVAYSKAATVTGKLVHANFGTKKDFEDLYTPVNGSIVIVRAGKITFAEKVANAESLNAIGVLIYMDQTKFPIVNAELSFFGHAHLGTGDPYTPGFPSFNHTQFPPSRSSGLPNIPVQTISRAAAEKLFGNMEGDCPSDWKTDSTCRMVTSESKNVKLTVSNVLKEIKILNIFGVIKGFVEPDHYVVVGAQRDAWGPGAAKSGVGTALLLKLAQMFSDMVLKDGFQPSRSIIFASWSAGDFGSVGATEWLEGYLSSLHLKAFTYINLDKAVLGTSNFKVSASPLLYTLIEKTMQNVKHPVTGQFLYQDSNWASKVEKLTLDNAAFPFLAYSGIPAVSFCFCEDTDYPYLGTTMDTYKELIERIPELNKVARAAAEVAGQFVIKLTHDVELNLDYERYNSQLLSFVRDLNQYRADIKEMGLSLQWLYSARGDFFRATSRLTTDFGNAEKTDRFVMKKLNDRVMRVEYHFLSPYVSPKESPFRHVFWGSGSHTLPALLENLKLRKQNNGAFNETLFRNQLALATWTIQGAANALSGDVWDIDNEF
- assay-text: SPR
Your reply should be a number followed by the unit it is expressed in.

1. 4/94 SEQ ID NO 194 / SEQ ID NO 208 (antibody, V domains shown) VH: QVQLVQSGAEVKKPGASVKVSCKASGFNIKDTYIHWVIQAPGQGLEWMGRIDPANGDTKSDPKFQVRVTITADTSTSTVYMELSSLRSEDTAVYYCVRDYLYPYYFDFWGQGTTVTVSS VL: EIVLTQSPGTLSLSPGERATLSCRASESVDTYVSWYQQKPGQAPRLLIYGASNRYTGVPDRFSGSGSGTDFTLTISRLEPEDFADYYCGQTYNYPLTFGQGTKLEI : 0.000476 s⁻¹
2. 4/94 SEQ ID NO 198 / SEQ ID NO 207 (antibody, V domains shown) VH: QVQLVQSGAEVKKPGSSVKVSCKASGFNIKDTYIHWVIQRPGQGLEWMGRIDPANGDTKSDPKFQGRVTITADESTSTAYMELSSLRSEDTAVYYCVRDYLYPYYFDFWGQGTTVTVSS VL: KIVLTQSPGTLSLSPGERATLSCRASESVDTYVSWYQQKPGQAPRLLIYGASNRYTGVPDRFSGSGSGTDFTLTISRLEPEDFADYYCGQTYNYPLTFGQGTKLEI : 0.000717 s⁻¹

Qu. Data request, read-out koff, for 4/94 SEQ ID NO 199 / murine VL (antibody, V domains shown) VH: QVQLQESGPGLVKPSETLSLTCTVSGFNIKDTYIHWVIQRPGKGLEWIGRIDPANGDTKSDPSLQSRVTISADTSKNQASLKLSSVTAADTAVYYCVRDYLYPYYFDFWGQGTTVTVSS VL: KIVMTQSPKSMSMSVGERVTLNCRASESVDTYVSWYQQKPEQSPELLIYGASNRYTGVPDRFTGSGSATDFTLTISSVQAEDLADYYCGQTYNYPLTFGAGTKLELKR
Ans. 0.000381 s⁻¹
